Provenance of the data: patent US9815790B2

test_target: CB-1 receptor (Human Cannabinoid receptor 1) (Homo sapiens (Human), UniProt P21554)
Sequence (P21554 whole entry): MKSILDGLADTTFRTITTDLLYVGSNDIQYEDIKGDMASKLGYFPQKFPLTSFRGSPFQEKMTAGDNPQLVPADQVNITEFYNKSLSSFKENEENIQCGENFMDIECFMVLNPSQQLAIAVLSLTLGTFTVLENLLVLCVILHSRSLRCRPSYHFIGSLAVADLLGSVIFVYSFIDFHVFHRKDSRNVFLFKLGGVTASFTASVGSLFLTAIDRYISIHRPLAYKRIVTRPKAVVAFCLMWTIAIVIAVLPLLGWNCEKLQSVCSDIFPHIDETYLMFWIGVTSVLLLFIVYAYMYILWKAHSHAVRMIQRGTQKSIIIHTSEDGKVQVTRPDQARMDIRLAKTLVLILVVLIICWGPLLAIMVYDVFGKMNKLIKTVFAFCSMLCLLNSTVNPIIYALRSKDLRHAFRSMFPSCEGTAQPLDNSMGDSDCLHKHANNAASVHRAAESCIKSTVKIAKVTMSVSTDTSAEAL
protocol_summary: cAMP HTRF assay, CB-1 inverse agonism in stably transfected HEK-293 cells
experimental_conditions: 250 nM Forskolin, mean where tested more than once, read-out: CB1 EC50
endpoint: EC50 (nM)

[
  {
    "molecule": "O=C(O)CCOCCOCCOCCOCCOCCOCCOCCOCCOCCOCCOCCOCCOc1cc(C(c2ccc(Cl)cc2)c2ccc(Cl)cc2)cc2c(NC3CCN(S(=O)(=O)C(F)(F)F)CC3)ccnc12 [Cpd 17]",
    "numeric_readout": 77
  }
]

A: COCCOCCOCCOCCn1c(=O)cc(NC2CCN(S(=O)(=O)C(F)(F)F)CC2)c2cc(C(c3ccc(Cl)cc3)c3ccc(Cl)cc3)ccc21 [Cpd 21]
B: COCCOCCOCCOCCOCCOCCOCCOCCOCCOCCOCCOCCNC(=O)OCc1ccc(OCCOCCOCCOCCOCCOCCOc2cc(NC3CCN(S(=O)(=O)C(F)(F)F)CC3)c3cc(C(c4ccc(Cl)cc4)c4ccc(Cl)cc4)ccc3n2)cc1 [Cpd 13]
C: COCCOCCOCCOCCOCCOCCOCCOCCOCCOCCOCCOCCNC(=O)CCCCCOc1cc(NC2CCN(S(=O)(=O)C(F)(F)F)CC2)c2cc(C(c3ccc(Cl)cc3)c3ccc(Cl)cc3)ccc2n1 [Cpd 6]
D: O=S(=O)(N1CCC(Nc2cc(OCCOCCOCCOCCOCCOCCOc3ccc(CO)cc3)nc3ccc(C(c4ccc(Cl)cc4)c4ccc(Cl)cc4)cc23)CC1)C(F)(F)F [Cpd 11]
List items by EC50 in falling order. When ranking, write the labels in the order the request describes.
A, B, D, C
